# cAMP agonism, nM (EC50) annotations
Target: T1, human GIP receptor (human, UniProt P48546 22-466)
T1 sequence (looked up): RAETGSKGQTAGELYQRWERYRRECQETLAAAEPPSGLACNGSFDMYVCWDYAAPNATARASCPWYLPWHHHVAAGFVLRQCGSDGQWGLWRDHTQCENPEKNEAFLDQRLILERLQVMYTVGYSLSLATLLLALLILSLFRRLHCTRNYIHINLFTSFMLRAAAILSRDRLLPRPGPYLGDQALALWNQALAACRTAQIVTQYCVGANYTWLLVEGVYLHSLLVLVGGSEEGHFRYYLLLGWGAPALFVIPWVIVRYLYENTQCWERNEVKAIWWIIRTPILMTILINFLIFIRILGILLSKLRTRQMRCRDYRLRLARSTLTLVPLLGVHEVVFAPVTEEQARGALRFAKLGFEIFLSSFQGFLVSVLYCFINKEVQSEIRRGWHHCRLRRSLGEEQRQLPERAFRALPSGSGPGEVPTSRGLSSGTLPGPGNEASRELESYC
Test: cell-based or functional assay
* marks the point of attachment. Stearoyl = CCCCCCCCCCCCCCCCCC(=O)*; Palmitoyl = CCCCCCCCCCCCCCCC(=O)*
Numeric answer only, unit nM assumed.

Palmitoyl-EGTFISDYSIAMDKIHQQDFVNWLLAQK-NH2 [AT104 [hGIP(3-30)NH2-C16/3]] | 2.4
EGTKISDYSIAMDKIHQQDFVNWLLAQK (C16-diacid (1,16-hexadecanedioic acid) on Lys 6 (GIP numbering); C-terminal amide) [AT297 [hGIP(3-30)NH2[F6K]-C16diacid/6]] | 9

**Query** // cAMP agonism, nM (EC50) lookup, key: Stearoyl-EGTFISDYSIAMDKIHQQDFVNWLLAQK-NH2 [AT113 [hGIP(3-30)NH2-C18/3]]
**Result** 9.9
